- Test system: HPPD polypeptides
- test-details: coupled HPPD activity assay: turnover and residual turnover in crude extracts
- Format: biochemical, Pseudomonas fluorescens
- test-settings: absence of Cmpd. 1; high substrate concentration; kinetic changes in absorbance (OD) at 320 nm, 30 min
metric-name: Turnover
Give a plain numeric answer without units written out.

[in] Give its Turnover value. Item: 70 (protein, mutant HPPD polypeptide) MADLYENPMGLMGFEFIEFASPTPGTLEPIFEIMGFTKVATHRSKNVHLYRQGEINLILNNEPNSIASYFAAEHGPSVCGMAFRVKDSQKAYNRALELGAQPIHIDTGPMELNLPAIKGIGGAPLYLIDRFGEGSSIYDIDFVYLEGVERNPVGAGLKVIDHLTHNVYRGRMVYWANFYEKLFNFREARYFDIKGEYTGLTSKAMSAPDGMIKIPLNEESSKGAGQIEEFLMQFNGEGIQHVAFLTDDLVKTWDALKKIGMRFMTAPADSYYEMLEGRLPDHGEPVDQLQARGILLDGSSVEGDKRLLLQIFSEQLMGPVFFEFIQRKGDDGFGPHSFKVLFEQMERDQVRRGVLTAD
[out] 0.338

[in] # get_value(readout='Turnover', item= 64 (protein, mutant HPPD polypeptide) MADLYENPMGLMGFEFIEFASPTPGTLEPIFEIMGFTKVATHRSKNVHLYRQGEINLILNNEPNSIASYFAAEHGPSVCGMAFRVKDSQKAYNRALELGAQPIHIDTGPMELNLPAIKGIGGAPLYLIDRFGEGSSIYDIDFVYLEGVERNPVGAGLKVIDHLTHNVYRGRMVYWANFYEKLFNFREARYFDIKGEYTGLTSKAMSAPDGMIRIPLNEESSKGAGQIEEFLMQFNGEGIQHVAFLTDDLVKTWDALKKIGMRFMTAPADSYYEMLEGRLPDHGEPVDQLQARGILLDGSSVEGDKRLLLQIFSETLMGPVFFEFIQRKGDDGFGPHSFKVLFEQMERDQVRRGVLTAD )
[out] 0.242

[in] Would you kindly share the measured Turnover for 55 (protein, mutant HPPD polypeptide) MADLYENPMGLMGFEFIEFASPTPGTLEPIFEIMGFTKVATHRSKNVHLYRQGEINLILNNEPNSIASYFAAEHGPSVCGMAFRVKDSQKAYNRALELGAQPIHIDTGPMELNLPAIKGIGGAPLYLIDRFGEGSSIYDIDFVYLEGVERNPVGAGLKVIDHLTHNVYRGRMVYWANFYEKLFNFREARYFDIKGEYTGLTSKAMSAPDGMIRIPLNEESSKGAGQIEEFLMQFNGEGIQHVAFLTDDLVKTWDALKKIGMRFMTAPADNYYEMLEGRLPDHGEPVDQLQARGILLDGSSVEGDKRLLLQIFSETLMGPVFFEFIQRKGDDGFGPHSFKVLFESKERDQVRRGVLTAD ?
[out] 0.189

[in] Data request, read-out Turnover, for 9 (protein, mutant HPPD polypeptide) MADLYENPMGLMGFEFIEFASPTPGTLEPIFEIMGFTKVATHRSKNVHLYRQGEINLILNNEPNSIASYFAAEHGPSVCGMAFRVKDSQKAYNRALELGAQPIHIDTGPMELNLPAIKGIGGAPLYLIDRFGEGSSIYDIDFVYLEGVERNPVGAGLKVIDHLTHNVYRGRMVYWANFYEKLFNFREARYFDIKGEYTGLTSKAMSAPDGMIRIPLNEESSKGAGQIEEFLMQFNGEGIQHVAFLTDDLVKTWDALKKIGMRFMTAPADTYYEMLEGRLPDHGEPVDQLQARGILLDGSSVEGDKRLLLQIFSETLMGPVFFEFIQRKGDDGFGPDSFKVLFESVERDQVRRGVLTAD
[out] 0.102
